procedure-details: Phase 1 Stage 1 clinical pharmacokinetics of SC ZA co-administered with rHuPH20
Type: in vivo, human
run-conditions: human, serum, sc, serum; ZA 1 mg SC infusion + 24000 Units rHuPH20; 4 h post infusion; individual subjects; read-out: Zoledronic Acid Concentration
quantity-name: concentration at 4 h (ng/mL)

>>> reading("O=P(O)(O)C(O)(Cn1ccnc1)P(=O)(O)O")
13.3

---

procedure-details: Phase 1 Stage 1 clinical pharmacokinetics of SC ZA co-administered with rHuPH20
Format: in vivo, human
run-conditions: human, serum, sc, […], Subj 21; ZA […] SC; inf 0.556 hr; PH20 24000 U
Method: A pharmacokinetic study of zoledronic acid (ZA) co-administered with rHuPH20 in human subjects was conducted. […] Serum concentration of ZA was determined using a qualified LC-MS-MS assay after derivatization with diazomethane (Zhu, L S et al. (2006) Rapid Commun. […] The assay range was from 2.0 to 400 ng/mL with a lower limit of quantitation (LLOQ) at 2.0 ng/mL. […] Summary statistics (mean, standard deviation, and median) were calculated using JMP or Microsoft Excel.
quantity-name: Cmax (ng/mL)

>>> reading("O=P(O)(O)C(O)(Cn1ccnc1)P(=O)(O)O")
14.2
